The reported numbers originate from patent US4551532A.

system: Cryptococcus neoformans; test: antimycotic activity, paper disk inhibition circle; assay type: cell-based; details: 48 h, 8 mm paper disk, 3 mg/ml, 37° C., 2 days, read-out: Growth inhibition Cryptococcus
Below is a list of entries, each paired with its recorded zone of inhibition at 3000 µg/mL value.
measured.quantity: zone of inhibition at 3000 µg/mL

| compound | assayed.target | measured.quantity | result |
| --- | --- | --- | --- |
| CCCCCCCCCCCCOCCOCCOP(=O)([O-])OCC[n+]1ccc2ccccc2c1 [Example 32] | Cryptococcus neoformans | zone of inhibition at 3000 µg/mL | > 20 mm |
| CCCCCCCCCCCCCOCCOCCOP(=O)([O-])OCC[n+]1ccccc1 [Example 28] | Cryptococcus neoformans | zone of inhibition at 3000 µg/mL | > 20 mm |
| CCCCCCCCCCCCCCOCCOCCOP(=O)([O-])OCC[N+](C)(C)C [Example 26] | Cryptococcus neoformans | zone of inhibition at 3000 µg/mL | 10 to 20 mm |
| CCCCCCCCCCCCCCCCCCOCCOCCOP(=O)([O-])OCC[N+](C)(C)C [Example 18] | Cryptococcus neoformans | zone of inhibition at 3000 µg/mL | 10 to 20 mm |
| CCCCCCCC/C=C\CCCCCCCCOCCOCCOCCOCCOP(=O)(O)OCCN [Example 10] | Cryptococcus neoformans | zone of inhibition at 3000 µg/mL | 10 to 20 mm |
| CCCCCCCCCCCCOCCOCCOCCOP(=O)([O-])OCC[n+]1ccccc1 [Example 16] | Cryptococcus neoformans | zone of inhibition at 3000 µg/mL | > 20 mm |
| CCCCCCCCCCCCCOCCOCCOP(=O)([O-])OCC[N+](C)(C)C [Example 29] | Cryptococcus neoformans | zone of inhibition at 3000 µg/mL | > 20 mm |
| CCCCCCCC/C=C\CCCCCCCCOCCOCCOP(=O)(O)OCCN [Example 5] | Cryptococcus neoformans | zone of inhibition at 3000 µg/mL | 8 to 10 mm |
| CCCCCCCCCCCCOCCOCCOP(=O)([O-])OCC[n+]1ccccc1 [Example 15] | Cryptococcus neoformans | zone of inhibition at 3000 µg/mL | > 20 mm |
| CCCCCCCCCCCCOCCOCCOCCOCCOP(=O)(O)OCCN [Example 14] | Cryptococcus neoformans | zone of inhibition at 3000 µg/mL | 10 to 20 mm |
| CCCCCCCC/C=C\CCCCCCCCOCCOCCOP(=O)([O-])OCC[N+](C)(C)C [Example 7] | Cryptococcus neoformans | zone of inhibition at 3000 µg/mL | > 20 mm |
| CCCCCCCCCCCCOCCOCCOCCOP(=O)(O)OCCN [Example 13] | Cryptococcus neoformans | zone of inhibition at 3000 µg/mL | 10 to 20 mm |
| CCCCCCCCCCCCOCCOCCOCCOCCOCCOP(=O)([O-])OCC[N+](C)(C)C [Example 3] | Cryptococcus neoformans | zone of inhibition at 3000 µg/mL | < 8 mm |
| CCCCCCCCCCCCCCOCCOCCOP(=O)([O-])OCC[n+]1ccccc1 [Example 34] | Cryptococcus neoformans | zone of inhibition at 3000 µg/mL | 10 to 20 mm |
| CCCCCCCCCCCCCCOCCOCCOP(=O)(O)OCCN [Example 24, 3,6-Dioxaeicosyl 2-aminoethyl phosphate] | Cryptococcus neoformans | zone of inhibition at 3000 µg/mL | 10 to 20 mm |
| CCCCCCCCCCOCCOCCOP(=O)(O)OCCN [Example 22] | Cryptococcus neoformans | zone of inhibition at 3000 µg/mL | < 8 mm |
| CCCCCCCCCCOCCOCCOP(=O)([O-])OCC[N+](C)(C)C [Example 21] | Cryptococcus neoformans | zone of inhibition at 3000 µg/mL | 10 to 20 mm |
| CCCCCCCCCCCCOCCOCCOP(=O)([O-])OCC[N+](C)(C)C [Example 25] | Cryptococcus neoformans | zone of inhibition at 3000 µg/mL | > 20 mm |
| CCCCCCCCCCCCOCCOCCOP(=O)(O)OCCN [Example 12] | Cryptococcus neoformans | zone of inhibition at 3000 µg/mL | > 20 mm |
| CCCCCCCCCCCCOCCOCCOCCOCCOCCOP(=O)([O-])OCC[n+]1ccccc1 [Example 2] | Cryptococcus neoformans | zone of inhibition at 3000 µg/mL | 8 to 10 mm |
